These measurements were taken from the supplement of paper PMC6555819.

What PBM binding z-score was measured for each of the following?
- System: RARg homodimer (NR concentration 270 nM)
- assay-procedure: PBM binding z-score (relative to random genomic background probes); higher = stronger binding; sequences stand for … in GC…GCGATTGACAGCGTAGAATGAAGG
A bare number is all that is needed in reply.

Exercise: Find the measured PBM binding z-score of ATCTCTAGGTAAAGTTCAGTCAAAGATCGATAGA and report it.
Key: 2.39

Exercise: Find the measured PBM binding z-score of ACCGAAAGGTCGTGAGGTGAGTATACAGAAAGGC and report it.
Key: 4.01

Exercise: Find the measured PBM binding z-score of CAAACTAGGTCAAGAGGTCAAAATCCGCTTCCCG and report it.
Key: 7.02

Exercise: Find the measured PBM binding z-score of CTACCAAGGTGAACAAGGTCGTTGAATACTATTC and report it.
Key: 1.95

Exercise: Find the measured PBM binding z-score of GCATATAGGTAAGACAAGGTGAAAGTCCGATTGT and report it.
Key: 0.405

Exercise: Find the measured PBM binding z-score of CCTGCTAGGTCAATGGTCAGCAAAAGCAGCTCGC and report it.
Key: 4.83

Exercise: Find the measured PBM binding z-score of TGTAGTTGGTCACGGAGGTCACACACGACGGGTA and report it.
Key: 4.47

Exercise: Find the measured PBM binding z-score of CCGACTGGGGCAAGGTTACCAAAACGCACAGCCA and report it.
Key: 1.18

Exercise: Find the measured PBM binding z-score of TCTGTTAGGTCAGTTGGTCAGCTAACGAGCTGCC and report it.
Key: 4.2

Exercise: Find the measured PBM binding z-score of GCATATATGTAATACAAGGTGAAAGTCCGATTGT and report it.
Key: 0.615

Exercise: Find the measured PBM binding z-score of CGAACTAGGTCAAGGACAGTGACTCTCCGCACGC and report it.
Key: 4.74

Exercise: Find the measured PBM binding z-score of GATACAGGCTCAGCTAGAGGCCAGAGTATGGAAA and report it.
Key: -0.0931

Exercise: Find the measured PBM binding z-score of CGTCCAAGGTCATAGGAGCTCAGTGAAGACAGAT and report it.
Key: 5.78

Exercise: Find the measured PBM binding z-score of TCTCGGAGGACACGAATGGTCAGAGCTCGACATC and report it.
Key: 1.29

Exercise: Find the measured PBM binding z-score of CATACAGGGTCAGCTAGGCCAGGGTAGGGACGGC and report it.
Key: 5.13

Exercise: Find the measured PBM binding z-score of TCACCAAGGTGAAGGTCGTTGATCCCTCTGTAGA and report it.
Key: 1.08

Exercise: Find the measured PBM binding z-score of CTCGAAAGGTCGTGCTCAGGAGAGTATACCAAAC and report it.
Key: 4.09

Exercise: Find the measured PBM binding z-score of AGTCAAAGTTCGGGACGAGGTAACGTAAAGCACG and report it.
Key: 1.49

Exercise: Find the measured PBM binding z-score of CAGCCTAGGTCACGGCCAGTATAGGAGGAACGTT and report it.
Key: 5.72

Exercise: Find the measured PBM binding z-score of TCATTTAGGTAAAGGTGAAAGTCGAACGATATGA and report it.
Key: 1.44

Exercise: Find the measured PBM binding z-score of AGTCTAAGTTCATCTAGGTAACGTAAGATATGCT and report it.
Key: 4.02

Exercise: Find the measured PBM binding z-score of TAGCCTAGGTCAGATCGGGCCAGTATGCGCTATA and report it.
Key: 3.88

Exercise: Find the measured PBM binding z-score of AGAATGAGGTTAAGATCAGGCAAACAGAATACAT and report it.
Key: 1.63

Exercise: Find the measured PBM binding z-score of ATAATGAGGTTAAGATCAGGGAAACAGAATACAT and report it.
Key: 1.96

Exercise: Find the measured PBM binding z-score of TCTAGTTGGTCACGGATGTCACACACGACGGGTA and report it.
Key: 1.91

Exercise: Find the measured PBM binding z-score of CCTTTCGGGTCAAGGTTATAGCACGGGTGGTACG and report it.
Key: 5.07

====

- System: THRa homodimer (NR concentration 90 nM)
- assay-procedure: PBM binding z-score (relative to random genomic background probes); higher = stronger binding; sequences stand for … in GC…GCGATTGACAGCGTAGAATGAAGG
What PBM binding z-score was measured for each of the following?

Exercise: Find the measured PBM binding z-score of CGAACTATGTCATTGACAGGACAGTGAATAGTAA and report it.
Key: -0.398

Exercise: Find the measured PBM binding z-score of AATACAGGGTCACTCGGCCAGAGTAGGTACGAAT and report it.
Key: 0.907

Exercise: Find the measured PBM binding z-score of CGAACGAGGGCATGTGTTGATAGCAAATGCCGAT and report it.
Key: 0.0176

Exercise: Find the measured PBM binding z-score of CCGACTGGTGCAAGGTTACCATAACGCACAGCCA and report it.
Key: 0.473

Exercise: Find the measured PBM binding z-score of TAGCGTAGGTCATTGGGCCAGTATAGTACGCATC and report it.
Key: -0.396

Exercise: Find the measured PBM binding z-score of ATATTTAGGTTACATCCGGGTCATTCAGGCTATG and report it.
Key: 3.84

Exercise: Find the measured PBM binding z-score of ACTAGCAGGCCAAGTTTGAGTCACTCAAACAAAG and report it.
Key: -0.77

Exercise: Find the measured PBM binding z-score of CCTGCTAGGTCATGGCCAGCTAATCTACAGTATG and report it.
Key: 0.915

Exercise: Find the measured PBM binding z-score of TCATATAGGTAATACAGGTGAAATTCGGCATCTA and report it.
Key: 0.421

Exercise: Find the measured PBM binding z-score of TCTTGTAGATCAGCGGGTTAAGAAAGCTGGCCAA and report it.
Key: -0.241

Exercise: Find the measured PBM binding z-score of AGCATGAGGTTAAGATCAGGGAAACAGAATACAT and report it.
Key: 0.635

Exercise: Find the measured PBM binding z-score of AGAATGAGGTTATTAAGATCAGGAAATTGCGGTC and report it.
Key: 0.497

====

- Tested on: RXRa homodimer (NR concentration 180 nM)
- assay-procedure: PBM binding z-score (relative to random genomic background probes); higher = stronger binding; sequences stand for … in GC…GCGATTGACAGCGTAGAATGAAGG
# binarize PBM binding z-score: threshold 3 inclusive, high side 1 (yes), low side 0 (no)

Exercise: Hi, just wondering whether CTGACTGGGGCAAAGGTTACCATACTCAGTACGA shows PBM binding z-score of 3 or higher.
Key: 1 (yes)

Exercise: Hi, just wondering whether TCGAGTAGGTTAGGGACATTCAGAATGGCGTCGA shows PBM binding z-score of 3 or higher.
Key: 0 (no)

Exercise: Hi, just wondering whether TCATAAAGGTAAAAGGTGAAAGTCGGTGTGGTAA shows PBM binding z-score of 3 or higher.
Key: 1 (yes)

Exercise: Hi, just wondering whether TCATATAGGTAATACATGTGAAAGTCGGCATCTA shows PBM binding z-score of 3 or higher.
Key: 0 (no)

Exercise: Hi, just wondering whether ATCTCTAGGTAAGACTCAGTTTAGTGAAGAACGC shows PBM binding z-score of 3 or higher.
Key: 0 (no)

Exercise: Hi, just wondering whether CAAACTAGGTCATTGACAGGACAGTGAATAGTAA shows PBM binding z-score of 3 or higher.
Key: 0 (no)

Exercise: Hi, just wondering whether CAAACTAGGTCTAGAGGTCAAAGTCCGCTTCCCG shows PBM binding z-score of 3 or higher.
Key: 1 (yes)

Exercise: Hi, just wondering whether AGAATCAGGTTACCAAAGATCAGGGAAACGCTTG shows PBM binding z-score of 3 or higher.
Key: 0 (no)

Exercise: Hi, just wondering whether ATTAGCAGGCCAAGTTTGGGTCACTCAAACAAAG shows PBM binding z-score of 3 or higher.
Key: 0 (no)

Exercise: Hi, just wondering whether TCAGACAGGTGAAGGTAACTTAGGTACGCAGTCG shows PBM binding z-score of 3 or higher.
Key: 0 (no)

====

- Tested on: RXRa homodimer (NR concentration 180 nM)
- assay-procedure: PBM binding z-score (relative to random genomic background probes); higher = stronger binding; sequences stand for … in GC…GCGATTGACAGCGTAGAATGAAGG
# binarize PBM binding z-score: threshold 3 inclusive, high side condition met, low side condition not met

Exercise: Hi, just wondering whether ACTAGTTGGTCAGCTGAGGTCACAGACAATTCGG shows PBM binding z-score of 3 or higher.
Key: condition met

Exercise: Hi, just wondering whether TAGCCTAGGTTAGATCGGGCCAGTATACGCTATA shows PBM binding z-score of 3 or higher.
Key: condition not met

Exercise: Hi, just wondering whether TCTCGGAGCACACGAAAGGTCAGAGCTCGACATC shows PBM binding z-score of 3 or higher.
Key: condition met

Exercise: Hi, just wondering whether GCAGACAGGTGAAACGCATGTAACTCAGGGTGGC shows PBM binding z-score of 3 or higher.
Key: condition not met

Exercise: Hi, just wondering whether ATCTCTAGGTAAAGATAGTTCAGTGAATGCAAAT shows PBM binding z-score of 3 or higher.
Key: condition not met
